- PROTOCOL SUMMARY: qHTS assay to test for compound auto fluorescence at 460 nm (blue) in HepG2 cells (AID 720687); note: % is set by controls: 0 for no effect and ±100 for the full control effect
- PARTICULARS: autofluorescence 405/460 nm, 1 h; series mostly up to 91.3 µM
- Source text: U.S. Tox21 Program National Center for Advancing Translational Sciences [NCATS] NIH Chemical Genomics Center [NCGC] U.S. Environmental Protection Agency [EPA] National Institutes of Environmental Health Sciences [NIEHS] National Toxicology Program [NTP] U.S. Food and Drug Administration [FDA] Tox21 Assay Overview: Compound auto fluorescence often interferes with screening of the compound library against various biological targets and signaling pathways. […] This assay includes the blue fluorescence data. […]
Calls of active or inactive are those of the source. Calls come from the whole dose curve; as a rule, active = well fitted curve in the direction sought with a large enough effect in the repeat runs; inconclusive = weak or mixed curves; inactive = flat fitted curve, though single readings scatter.
TEST READOUT: fluorescence, % of fluorescent control

Known fluorescence, % of fluorescent control results, listed for orientation:
INSERT INTO assay_data (molecule, measured) VALUES
  ('CCN(CCCCOC(=O)c1ccc(OC)c(OC)c1)C(C)Cc1ccc(OC)cc1 (stereo not given)', '0.0432% [at 18.6 µM] (inactive)'),
  ('O=c1[nH][nH]c2ccccc12', 'inactive'),
  ('CCCCOC(=O)CC#N', 'inactive'),
  ('COc1ccc(C(=O)c2ccc(C)cc2)c(O)c1', 'inactive');

The record that follows has no fluorescence, % of fluorescent control shown yet.
Enquiry: Return value of fluorescence, % of fluorescent control for input CCOC(C)OCC , no commentary.
Return: inactive

All figures here come from PubChem BioAssay (Tox21).
